Molecular target: Delta opioid receptor (DOR)
Test: cell-based or functional assay
Square brackets hold non-standard residues; d marks the D form. Ends that are not written are not given here. Phe(4-NO2) = N[C@@H](Cc1ccc([N+](=O)[O-])cc1)C(=O)O; Phe(4-Cl) = N[C@@H](Cc1ccc(Cl)cc1)C(=O)O; Api = NC1(C(=O)O)CCNCC1; GABA = NCCCC(=O)O; Sar = CNCC(=O)O
Could you mark each record YES if its cAMP assay (ALPHAScreen), result at 1 µM peptide falls strictly under -0.7, and NO if it equals or exceeds it?

[
  {
    "binder": "H-Y[Sar][Phe(4-Cl)]LR[dR]-NH2 [SEQ ID NO. 11: NH2-Tyr-Sar-(4-Cl)Phe-Leu-Arg-DArg-NH2]",
    "assigned class": "YES"
  },
  {
    "binder": "H-Y[Sar][Phe(4-NO2)]L[dR]R-NH2 [SEQ ID NO. 5: NH2-Tyr-Sar-(4-NO2)Phe-Leu-DArg-Arg-NH2]",
    "assigned class": "NO"
  },
  {
    "binder": "H-F[Sar][Phe(4-NO2)]L[dR][dR]-NH2 (SMILES CC(C)C[C@H](NC(=O)[C@H](Cc1ccc([N+](=O)[O-])cc1)NC(=O)CN(C)C(=O)[C@@H](N)Cc1ccccc1)C(=O)N[C@H](CCCNC(=N)N)C(=O)N[C@H](CCCNC(=N)N)C(N)=O) [SEQ ID NO. 9: NH2-Phe-Sar-(4-NO2)Phe-Leu-DArg-DArg-NH2]",
    "assigned class": "NO"
  },
  {
    "binder": "[dF][dF][dL][dK][Api]-OH (N-terminus assumed; SMILES CC(C)C[C@@H](NC(=O)[C@@H](Cc1ccccc1)NC(=O)[C@H](N)Cc1ccccc1)C(=O)N[C@H](CCCCN)C(=O)NC1(C(=O)O)CCNCC1) [CR845 (SEQ ID NO. 35: DPhe-DPhe-DLeu-DLys-Cap-CO2H)]",
    "assigned class": "YES"
  },
  {
    "binder": "H-Y[Sar]FL[dR]R-NH2 [SEQ ID NO. 6: NH2-Tyr-Sar-Phe-Leu-DArg-Arg-NH2]",
    "assigned class": "NO"
  }
]

// query Threshold test, cAMP assay (ALPHAScreen), result at 1 µM peptide < -0.7: H-Y[GABA]FLRR-NH2 (SMILES CC(C)C[C@H](NC(=O)[C@H](Cc1ccccc1)NC(=O)CCCNC(=O)[C@@H](N)Cc1ccc(O)cc1)C(=O)N[C@@H](CCCNC(=N)N)C(=O)N[C@@H](CCCNC(=N)N)C(N)=O) [SEQ ID NO. 1: NH2-Tyr-Gaba-Phe-Leu-Arg-Arg-NH2]
// result NO

// query Threshold test, cAMP assay (ALPHAScreen), result at 1 µM peptide < -0.7: H-Y[Sar]FLR[dR]-NH2 [SEQ ID NO. 3: NH2-Tyr-Sar-Phe-Leu-Arg-DArg-NH2]
// result YES

// query Threshold test, cAMP assay (ALPHAScreen), result at 1 µM peptide < -0.7: H-Y[Sar][Phe(4-NO2)]LR[dR]-NH2 [SEQ ID NO. 4: NH2-Tyr-Sar-(4-NO2)Phe-Leu-Arg-DArg-NH2]
// result YES

// query Threshold test, cAMP assay (ALPHAScreen), result at 1 µM peptide < -0.7: H-Y[Sar]FLRR-NH2 [SEQ ID NO. 2: NH2-Tyr-Sar-Phe-Leu-Arg-Arg-NH2]
// result NO

// query Threshold test, cAMP assay (ALPHAScreen), result at 1 µM peptide < -0.7: H-Y[Sar][Phe(4-NO2)]L[dK][dR]-NH2 [SEQ ID NO. 10: NH2-Tyr-Sar-(4-NO2)Phe-Leu-DLys-DArg-NH2]
// result YES
